src = PubChem BioAssay (NCI)

- System: SNB-75 CNS
- Measurement protocol: NCI-60 one-dose screen, 48 h (100 = growth as untreated, 0 = no growth, -100 = all killed)
- Condition summary: 10 µM unless noted
The panel holds about 83,000 compounds, 20% with a hit somewhere; the sample as a whole holds those more often.
Assay readout: growth (%)
Give just the numeric value; % need not be written.

Report value only: growth, SNB-75 CNS, CCN1C(=O)N(CC)C2Nn3c(s/c(=C4\C(=O)N(C)c5ccccc54)c3=O)=NC21 (stereo not given)
9.74

Fetch value of growth on SNB-75 CNS for O=C(CSc1nnc(-c2ccc(NC(=O)c3cccnc3)cc2)o1)N[C@@H](Cc1ccc(O)cc1)C(=O)O .
98.9

Name the recorded growth of COc1ccc(CNC(=O)C(O)C(Cc2ccccc2)NC(=O)c2[nH]c3ccccc3c(=O)c2C)cc1OC (stereo not given) , assay system SNB-75 CNS.
107

Report the value of growth obtained on SNB-75 CNS for CNS(=O)(=O)c1n[nH]nc1-c1cc(C(C)(C)C)c(O)c(C(C)(C)C)c1 .
80.5

Given COc1cc(N=Nc2ccc(N)cc2)c(OC)cc1N=Nc1ccccc1.[Cl][Zn][Cl] , report its growth on SNB-75 CNS.
80.9
